# credit: PubChem BioAssay (NCATS)

# STUDY_CONDITIONS: Ebola virus entry assay, blue channel fluorescence
Activity calls are given as the source filed them. How the calls were made is not given here.
// classify into active, inactive

[[record]]
molecule = "CCC(COC(=O)c1cc(OC)c(OC)c(OC)c1)(c1ccccc1)N(C)C (centres undefined)"
cat = "inactive"

[[record]]
molecule = "CCCCCCCCCCCCCC[N+](C)(C)Cc1ccccc1"
cat = "active"

[[record]]
molecule = "COC(=O)Nc1nc2ccc(C(=O)c3cccs3)cc2[nH]1"
cat = "active"

[[record]]
molecule = "O=C1CCC(N2C(=O)c3ccccc3C2=O)C(=O)N1 (centres undefined)"
cat = "inactive"

[[record]]
molecule = "C[C@H]1O[C@@H](O[C@H]2[C@@H](O)C[C@H](O[C@H]3[C@@H](O)C[C@H](O[C@H]4CC[C@@]5(C)[C@H](CC[C@@H]6[C@@H]5CC[C@]5(C)[C@@H](C7=CC(=O)OC7)CC[C@]65O)C4)O[C@@H]3C)O[C@@H]2C)C[C@H](O)[C@@H]1O"
cat = "active"


Continue with the molecule presented below.
For COc1ccc2nc(S(=O)Cc3ncc(C)c(OC)c3C)[nH]c2c1 (centres undefined) , which call appears in the assay record? inactive

* * *

# System: ICS
# ASSAY_EXPLANATION: qHTS profiling for inhibitors of Plasmodium falciparum proliferation (AID 504749); further: nearly all actives have a fitted effect of over 60% in size; further: potency means the concentration at half of the fitted maximal effect
# STUDY_CONDITIONS: P. falciparum in erythrocytes, SYBR Green DNA, 72 h; series mostly up to 28.7 µM
Records with an inconclusive call do not appear. Calls of active or inactive are those of the source. The call rests on the fitted dose curve; in most records, active means well fitted inhibition curve with a large enough effect; inconclusive means small, poorly fitted or top-dose-only effect; inactive means flat fitted curve, though single readings scatter.
ASSAY_READOUT: Potency

Known Potency results, listed for orientation:
[[record]]
compound = "CC1NCCOC1c1ccccc1 (configuration not stated)"
reported_result = "inactive"

[[record]]
compound = "O=P1(NCCCl)OCCCN1CCCl (configuration not stated)"
reported_result = "inactive"

[[record]]
compound = "CC(=O)[C@H]1CC[C@H]2[C@@H]3CC[C@H]4C[C@H](O)CC[C@]4(C)[C@H]3C(=O)C[C@]12C"
reported_result = "inactive"

[[record]]
compound = "OCCOc1ccccc1"
reported_result = "inactive"

[[record]]
compound = "CCOP(=S)(OCC)Oc1cc(C)nc(C(C)C)n1"
reported_result = "inactive"

[[record]]
compound = "O=c1[nH]c2ccccc2n1C1CCN(CCCC(c2ccc(F)cc2)c2ccc(F)cc2)CC1"
reported_result = "14.1 µM (active)"

[[record]]
compound = "CC[C@@H](CO)NC(=O)[C@@H]1C=C2c3cccc4[nH]cc(c34)C[C@H]2N(C)C1"
reported_result = "inactive"

[[record]]
compound = "COc1ccccc1N1CCNCC1"
reported_result = "inactive"

[[record]]
compound = "CCC(C(N)=O)N1CCCC1=O (configuration not stated)"
reported_result = "inactive"

[[record]]
compound = "CC[N+]1(C)CCCC(OC(=O)C(O)(c2ccccc2)c2ccccc2)C1 (configuration not stated)"
reported_result = "inactive"


Any idea what Potency was measured for CC(C)(C)NCC(O)c1cc(Cl)c(N)c(Cl)c1 (configuration not stated) ? 11.2 µM (active)

Value lookup for Potency; key = FC(F)(F)c1cccc(C2=CCN(CCc3ccc4ccccc4c3)CC2)c1 inactive

* * *

# ASSAY_EXPLANATION: Cytotoxicity counterscreen for NFkB agonists and antagonists (AID 624476);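 further: cells exposed to compound for 48 hours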
# STUDY_CONDITIONS: NFkB reporter cell line viability counterscreen; series mostly up to 46.1 µM
Inconclusive results are not listed. Activity calls are given as the source filed them. The call rests on the fitted dose curve; in most records, active means well fitted curve in the direction sought with a large enough effect; inconclusive means small, poorly fitted or top-dose-only effect, or another doubt; inactive means no such curve, though single readings can be large or run the other way.
Give one outcome, nothing more. List: 1 (yes) (active), 0 (no) (inactive)

Solved entries (count: 8):
[[record]]
compound = "CC(O)(CS(=O)(=O)c1ccc(F)cc1)C(=O)Nc1ccc(C#N)c(C(F)(F)F)c1 (configuration not stated)"
cat = "0 (no)"

[[record]]
compound = "CCCCC/C=C\\C/C=C\\C/C=C\\C/C=C\\CCCC(=O)NC1CC1"
cat = "0 (no)"

[[record]]
compound = "CNC(=O)N1N=C(c2ccc(N)cc2)c2cc3c(cc2CC1C)OCO3 (configuration not stated)"
cat = "0 (no)"

[[record]]
compound = "C[C@@H]1[C@@H](C(=O)C[C@H]2O[C@@H]3O[C@]4(C)CC[C@@H]5[C@H](C)CC[C@@H]([C@H]2C)[C@@]35OO4)O[C@@H]2O[C@]3(C)CC[C@H]4[C@H](C)CC[C@@H]1[C@@]24OO3"
cat = "0 (no)"

[[record]]
compound = "CN(C)CCN(C)CCc1ccc(Cl)c(Cl)c1"
cat = "0 (no)"

[[record]]
compound = "O=C(O)C(=O)c1cn(Cc2ccccc2)c2ccc(-c3ccc(OC(F)(F)F)cc3)cc12"
cat = "1 (yes)"

[[record]]
compound = "Cc1sc2c(c1C)C(c1ccc(Cl)cc1)=N[C@@H](CC(=O)OC(C)(C)C)c1nnc(C)n1-2"
cat = "0 (no)"

[[record]]
compound = "C[C@@H]1[C@@H](CC(C[C@H]2O[C@@H]3O[C@]4(C)CC[C@@H]5[C@H](C)CC[C@@H]([C@H]2C)[C@@]35OO4)C[S+](=O)([O-])c2ccc(COC(=O)N(C)C)cc2)O[C@@H]2O[C@]3(C)CC[C@H]4[C@H](C)CC[C@@H]1[C@@]24OO3 (some centres not stated)"
cat = "0 (no)"


Record request — test call for CC1=C2C[C@@H]3[C@@H](CC=C4C[C@@H](O)CC[C@@]43C)[C@@H]2CC[C@]12O[C@H]1C[C@H](C)CN[C@H]1[C@H]2C 0 (no)
